- ASSAY METHOD TEXT: ATG_NFI_CIS: Attagene CIS-FACTORIAL HepG2 Assay for human Nuclear Factor I (NFI) (AID 2282989)
- SETUP CONDITIONS: HepG2 cis-regulatory reporter, NFI response element transcription; actives raise or lower the signal
Calls of active or inactive are those of the source. The calls were made as follows: active = hit-call score of the fitted dose curve at least 0.9, where 1 is the maximum; inactive = score below 0.9.
Your answer must be one of the following: yes (active), no (inactive)

O=C(NC(=O)c1c(F)cccc1F)Nc1ccc(Cl)cc1; no
CCCCCCCCCCBr; no
C=CCN=C=S; no
CCCCCCCCCCCCCCC(Br)C(=O)O (stereo not given); no
OC(Cc1ccccc1Cl)(Cn1[nH]cnc1=S)C1(Cl)CC1 (stereo not given); no
O=C(Nc1ccc(Br)cc1)c1cc(Br)cc(Br)c1O; yes

## Input Assay outcome for `CC(c1ccc(O)cc1)c1ccc(O)cc1` : what was it?
## Output no

## Input Lab log entry: CC(C)(C1CCC(O)CC1)C1CCC(O)CC1 (stereo not given) — outcome as called in the assay?
## Output no

## Input Kindly provide the recorded test outcome for the following compound: `O=S(=O)(F)C(F)(F)C(F)(F)C(F)(F)C(F)(F)F`
## Output no

## Input Could you check what this test reported for `OC[C@@H](O)[C@H]1O[C@@H]2O[C@H](C(Cl)(Cl)Cl)O[C@@H]2[C@H]1O` ?
## Output no

## Input Fill in: this test's call for `NNCCO` is ___
## Output no

## Input Per the assay record, what outcome was assigned to `OC(c1ccc(Cl)cc1)(c1ccc(Cl)cc1)c1cccnc1` ?
## Output no

## Input Recorded test outcome, item CC(C)(COCC1CO1)COCC1CO1 (stereo not given)
## Output no

## Input Could you please tell me the result logged for `CCCCCCCCCCCCBr` in this assay?
## Output no

## Input Call for entry `Cc1ccccc1OP(=O)(Oc1ccccc1C)Oc1ccccc1C` :
## Output no

## Input Give the logged outcome of this assay for the following compound: `O=NN1CCOCC1`
## Output no

## Input I would be grateful if you could indicate the recorded call for `N#CS` .
## Output no

###

- ASSAY METHOD TEXT: ATG_XTT_Cytotoxicity: Cytotoxicity Assessment in the Attagene TRANS-FACTORIAL HepG2 Assay (AID 2283584)
Records with an inconclusive call do not appear. Activity calls are given as the source filed them. How the source made its calls: active means hit-call score of the fitted dose curve at least 0.9, where 1 is the maximum; inconclusive means response in the unintended direction; inactive means score below 0.9.
Could you please pick one outcome from this set? yes (1) = active, no (0) = inactive

Cc1cc(C)cc(C)c1; no (0)
Cc1cc(C(C)(C)c2ccc(O)c(C)c2)ccc1O; no (0)

Now let's try a different one.
## Input How did this test come out for `CC[N+](CC)(CC)CC` ?
## Output no (0)

###

- ASSAY SYSTEM: CCAAT/enhancer-binding protein beta (Homo sapiens) (UniProt P17676)
- Sequence (P17676 whole entry, looked up): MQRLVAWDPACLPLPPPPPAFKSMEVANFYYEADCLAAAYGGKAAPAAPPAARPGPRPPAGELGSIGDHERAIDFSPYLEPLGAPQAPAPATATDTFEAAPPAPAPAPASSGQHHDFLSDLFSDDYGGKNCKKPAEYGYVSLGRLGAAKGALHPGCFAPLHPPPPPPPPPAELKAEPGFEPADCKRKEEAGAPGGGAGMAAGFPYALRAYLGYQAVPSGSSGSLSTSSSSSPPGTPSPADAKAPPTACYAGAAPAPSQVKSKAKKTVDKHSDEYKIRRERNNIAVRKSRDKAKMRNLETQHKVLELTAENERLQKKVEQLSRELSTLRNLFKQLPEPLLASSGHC
- ASSAY METHOD TEXT: ATG_C_EBP_CIS: Attagene CIS-FACTORIAL HepG2 Assay for human CCAAT/Enhancer Binding Protein (C/EBP) beta (AID 2282927)
- SETUP CONDITIONS: HepG2 Attagene cis-factorial transcription factor reporter; actives raise or lower the signal
Active and inactive are the calls of the source. How the source made its calls: active means hit-call score of the fitted dose curve at least 0.9, where 1 is the maximum; inactive means score below 0.9.
Write down the outcome that applies. Available outcomes: 1 (yes) = active, 0 (no) = inactive

OCC(c1ccc(Cl)cc1)c1ccc(Cl)cc1; 0 (no)
COc1ccc([N+](=O)[O-])cc1O; 0 (no)
CC(C)(COCC1CO1)COCC1CO1 (stereo not drawn); 0 (no)

Here is the next item to consider.
## Input What classification did `Nc1c(Oc2ccccc2)cc(O)c2c1C(=O)c1ccccc1C2=O` end up with in this test?
## Output 0 (no)

###

- ASSAY METHOD TEXT: ATG_TA_CIS: Attagene CIS-FACTORIAL HepG2 Assay for human TA Basal Promoter (AID 2282964)
- SETUP CONDITIONS: HepG2 Attagene CIS-factorial TA basal promoter reporter; actives raise or lower the signal
Calls of active or inactive are those of the source. The calls were made as follows: active = hit-call score of the fitted dose curve at least 0.9, where 1 is the maximum; inactive = score below 0.9.
READOUT TYPE: outcome

CC(O)(CS(=O)(=O)c1ccc(F)cc1)C(=O)Nc1ccc(C#N)c(C(F)(F)F)c1 (stereo not drawn); inactive
O=C(Cc1ccccc1)OCCc1ccccc1; inactive
CC1CC(=O)O1 (stereo not drawn); inactive

###

- Read-out: Interleukin-8 (IL8), CXCL8 (gene 3576)
- ASSAY METHOD TEXT: BSK_3C_IL8: BioMAP Diversity Plus: 3C Assay for Interleukin-8 (IL8) Biomarker Activity (AID 2283020)
- SETUP CONDITIONS: primary human endothelial cells (HUVEC); actives raise or lower the signal
Active and inactive are the calls of the source. The calls were made as follows: active = hit-call score of the fitted dose curve at least 0.9, where 1 is the maximum; inactive = score below 0.9.
Reply using exactly one outcome from active, inactive

Previously resolved entries follow.
Oc1ccc(Cc2ccc(O)cc2)cc1; inactive
CC(C=O)Cc1ccc2c(c1)OCO2 (centres undefined); inactive
Oc1cccc(-c2ccccc2)c1; inactive

## Input What did the test return for CC(C)=CC1C(C(=O)OCc2cccc(Oc3ccccc3)c2)C1(C)C (centres undefined) ?
## Output inactive

## Input Assay outcome for `Cc1c([N+](=O)[O-])c(C)c([N+](=O)[O-])c(C(C)(C)C)c1[N+](=O)[O-]` : what was it?
## Output inactive

## Input Per the assay record, what outcome was assigned to `O=S(=O)(C(Cl)(Cl)Cl)C(Cl)(Cl)Cl` ?
## Output active

## Input What did the test return for Cc1cc(Cl)ccc1OC(C)C(=O)O (centres undefined) ?
## Output inactive

## Input Field: outcome | Entry: `Cc1cc(C(C)(C)c2ccc(O)c(C)c2)ccc1O`
## Output active

## Input Dear all, I need the recorded test outcome for `Clc1cccc(Cl)c1Cl` , thank you.
## Output inactive

###

- Read-out: C-C motif chemokine 2 (Homo sapiens)
- ASSAY METHOD TEXT: BSK_KF3CT_MCP1: BioMAP Diversity Plus: KF3CT Assay for Monocyte Chemoattractant Protein 1 (MCP1/CCL2) Biomarker Activity (AID 2283073)
- SETUP CONDITIONS: primary human keratinocytes with fibroblasts; actives raise or lower the signal
Activity calls are given as the source filed them. The calls were made as follows: active = hit-call score of the fitted dose curve at least 0.9, where 1 is the maximum; inactive = score below 0.9.
Mark one answer only. Choices: YES (active), NO (inactive)

O=C(Cc1ccccc1)OCCc1ccccc1; NO
N#Cc1cccnc1; NO
Oc1cc(Cl)c(Cl)cc1Cl; YES
O=[N+]([O-])c1ccc(Nc2ccccc2)cc1; NO
O=C(O)COc1cc(Cl)c(Cl)cc1Cl; NO

## Input Hi, do you know how `Cc1ccc(OP(=O)(Oc2ccc(C)cc2C)Oc2ccc(C)cc2C)c(C)c1` came out in this test?
## Output NO

## Input Could you kindly confirm the outcome this assay logged for `O=C(O)C1(c2ccc3c(c2)OC[C@H](Cc2ccc(-c4ccccc4)cc2)[C@H]3O)CCCC1` ?
## Output YES

## Input What did this assay record as the result for CC(C)=CC1C(C(=O)OCc2cccc(Oc3ccccc3)c2)C1(C)C (centres undefined) ?
## Output NO

###

- Read-out: Pselectin, SELP (gene 6403)
- ASSAY METHOD TEXT: BSK_4H_Pselectin: BioMAP Diversity Plus: 4H Assay for Pselectin Biomarker Activity (AID 2283026)
- SETUP CONDITIONS: primary human endothelial cells (HUVEC); actives raise or lower the signal
Calls of active or inactive are those of the source. How the source made its calls: active means hit-call score of the fitted dose curve at least 0.9, where 1 is the maximum; inactive means score below 0.9.
// one of T (active), F (inactive), no free text

Recorded results for 6 molecules are shown here.
CC(C=O)Cc1ccc2c(c1)OCO2 (configuration not stated); F
Cc1ccc(OP(=O)(Oc2ccc(C)cc2C)Oc2ccc(C)cc2C)c(C)c1; T
CCOP(=S)(OCC)OP(=S)(OCC)OCC; T
O=[N+]([O-])c1cccc2ccccc12; F
Nc1c(Oc2ccccc2)cc(O)c2c1C(=O)c1ccccc1C2=O; F
O=C1C=CC(=O)c2ccccc21; T

## Input Check the results log: what was the call for `Cc1c([N+](=O)[O-])c(C)c([N+](=O)[O-])c(C(C)(C)C)c1[N+](=O)[O-]` ?
## Output F

## Input What did this assay record as the result for `c1ccc(-c2cccc(-c3ccccc3)c2)cc1` ?
## Output T

## Input # outcome recorded in this test, key = `O=C(O)C1(c2ccc3c(c2)OC[C@H](Cc2ccc(-c4ccccc4)cc2)[C@H]3O)CCCC1`
## Output T

## Input So what was the verdict on `CCOC(=O)CCN(SN(C)C(=O)Oc1cccc2c1OC(C)(C)C2)C(C)C` in this test?
## Output T

## Input Recorded test call requested for C=CC(Cl)CCl (configuration not stated)
## Output F

## Input I'd appreciate the recorded outcome for `Oc1cccc(-c2ccccc2)c1` from this test.
## Output F

## Input Which result was noted for this molecule in the test: `O=C(CCl)NCO`
## Output F

## Input For `Oc1cc(Cl)c(Cl)cc1Cl` , which call appears in the assay record?
## Output T

## Input Query: recorded result category for `COc1ccccc1N` in this test
## Output F

## Input Please share the test call associated with `CCCCN(CCCC)C(=S)[S-].CCCCN(CCCC)C(=S)[S-].[Ni+2]` .
## Output F

## Input Test call, this molecule: `Cc1ccccc1OP(=O)(Oc1ccccc1C)Oc1ccccc1C`
## Output T
